- MEASURED_TARGET: T1, Qk-1-STAR (mouse, UniProt Q9QYS9 7-214)
- T1 sequence: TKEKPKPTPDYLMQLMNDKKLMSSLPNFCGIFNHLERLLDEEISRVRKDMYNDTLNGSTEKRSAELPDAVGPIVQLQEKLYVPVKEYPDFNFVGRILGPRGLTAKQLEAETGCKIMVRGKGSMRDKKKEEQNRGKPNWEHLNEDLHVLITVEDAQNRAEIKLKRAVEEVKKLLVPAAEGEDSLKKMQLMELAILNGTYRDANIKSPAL
- MEASUREMENT_PROTOCOL: EMSA; 10 mM Tris pH 8.0, 25 mM NaCl, 0.1 mM EDTA, 0.1 mg/mL tRNA, 5 ug/mL heparin, 0.01% IGEPAL CA630, room temperature, 3 h; EMSA gel 6% native, 0.5x TBE, 4 C
- RUN_CONDITIONS: protein: recombinant; tags: MBP fusion; chain copies: 2; label: 5' 32P; predicted secondary structure (mfold)
pKd: −log10 of the molar value.

BINDER	pKd
GACACUCGGUGCUCGGUGGAAAAAUAACCAU (ssRNA) [MBP:2-5'm1]	6.30
